target: human NAMPT (Homo sapiens (Human)); experiment: NMN fluorescence biochemical assay (human recombinant NAMPT enzyme assay)
measure: AC1.4 Human (µM)
Output spec: scalar in µM, unitless text.

Examples from the recorded data:
INSERT INTO assay_data (compound, unit, reported_result) VALUES
  ('CS(=O)(=O)N1CC2(CC(Cc3ccc(NC(=O)OCc4cnco4)cc3F)C2)C1 [Compound 404]', 'µM', 0.10),
  ('O=C(Nc1ccc(CNC(=O)c2ncccc2F)cc1)OCc1ccc(Cl)cc1 [Compound 207]', 'µM', 1.85),
  ('Cc1nn(C)c(C(=O)N(C)Cc2ccc(NC(=O)OCc3ccc(Cl)cc3)cc2)c1F [Compound 188]', 'µM', 1.62),
  ('C[C@H](NC(=O)c1ccnn1C)c1ccc(NC(=O)OCc2ccc(Cl)cc2)cc1 [Compound 149]', 'µM', 1.23);

// AC1.4 Human lookup, key: CC(=O)N1CCC[C@H](c2ccc(NC(=O)OCc3cnco3)cc2)C1 [Compound 375]
1.32

// AC1.4 Human lookup, key: Cn1ccc(C(=O)NCc2ccc(NC(=O)OCc3ccc(Cl)cc3)cc2)c1 [Compound 254]
2.64

// AC1.4 Human lookup, key: CN1CC(C(=O)NCc2ccc(NC(=O)OCc3ccc(Cl)cc3)cc2)CC1=O (centres unmarked) [Compound 277]
3.36

// AC1.4 Human lookup, key: O=C(Nc1ccc(CC2CCN(C(=O)N3CC(F)(F)C3)CC2)cc1)OCc1cnco1 [Compound 463]
0.42

---

target: human NAMPT (Homo sapiens (Human), UniProt P43490); test: NMN fluorescence biochemical assay (human recombinant NAMPT enzyme assay)
Sequence (P43490 whole entry): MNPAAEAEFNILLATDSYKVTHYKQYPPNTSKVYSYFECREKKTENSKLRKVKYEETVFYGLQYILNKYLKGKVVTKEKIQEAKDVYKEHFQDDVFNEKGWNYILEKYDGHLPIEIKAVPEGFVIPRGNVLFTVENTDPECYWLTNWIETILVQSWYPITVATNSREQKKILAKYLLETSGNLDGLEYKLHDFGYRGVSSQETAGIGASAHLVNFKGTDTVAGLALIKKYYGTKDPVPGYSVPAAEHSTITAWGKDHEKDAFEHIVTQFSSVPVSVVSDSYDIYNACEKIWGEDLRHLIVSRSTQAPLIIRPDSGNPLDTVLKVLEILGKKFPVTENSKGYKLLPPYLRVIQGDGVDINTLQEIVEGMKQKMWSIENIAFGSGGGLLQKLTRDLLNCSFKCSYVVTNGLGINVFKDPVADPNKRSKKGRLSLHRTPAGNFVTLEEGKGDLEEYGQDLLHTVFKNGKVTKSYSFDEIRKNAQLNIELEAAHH
measure: pEC50
By convention, pEC50 is the negative base-10 log of a molar concentration.

INSERT INTO results (molecule, reported_result) VALUES
  ('Cc1cc(C(=O)N(C)Cc2ccc(NC(=O)OCc3ccc(Cl)cc3)cc2)on1', 5.27),
  ('CN(Cc1ccc(NC(=O)OCc2ccc(Cl)cc2)cc1)C(=O)c1cn[nH]c1F', 5.51),
  ('CN(C)S(=O)(=O)N1CCC(Cc2ccc(NC(=O)OCc3cnco3)cc2F)CC1', 5.64);

Any idea what pEC50 came out for C[C@H](NC(=O)[C@@H]1C[C@@H]2[C@H](C1)C2(F)F)c1ccc(NC(=O)OCc2cnco2)cc1 on human NAMPT (Homo sapiens (Human), UniProt P43490)?
4.96

Any idea what pEC50 came out for C[C@H](NC(=O)c1c(F)cncc1F)c1ccc(NC(=O)OCc2ccc(Cl)cc2)cc1 on human NAMPT (Homo sapiens (Human), UniProt P43490)?
5.89

Any idea what pEC50 came out for Cc1ncc(C(=O)NCc2ccc(NC(=O)OCc3ccc(Cl)cc3)cc2)cc1F on human NAMPT (Homo sapiens (Human), UniProt P43490)?
5.63

Any idea what pEC50 came out for O=C(Nc1ccc(CNC(=O)c2ccnn2C2CCOCC2)cc1)OCc1ccc(Cl)cc1 on human NAMPT (Homo sapiens (Human), UniProt P43490)?
4.97

Any idea what pEC50 came out for O=C(Nc1ccc(CC(=O)N2CCOCC2)cc1)OCc1ccc(Cl)cc1 on human NAMPT (Homo sapiens (Human), UniProt P43490)?
4.49

Any idea what pEC50 came out for CS(=O)(=O)N1CCC(Cc2ccc(NC(=O)OCc3cnco3)cc2)C2CC21 (centres unmarked) on human NAMPT (Homo sapiens (Human), UniProt P43490)?
4.36

Any idea what pEC50 came out for O=C(Nc1ccc(CN2CCN(c3ccccn3)CC2)cc1)OCc1ccc(Cl)cc1 on human NAMPT (Homo sapiens (Human), UniProt P43490)?
5.82

Any idea what pEC50 came out for CC(=O)N1CC2(CC(c3ccc(NC(=O)OCc4cnco4)cc3)C2)C1 on human NAMPT (Homo sapiens (Human), UniProt P43490)?
4.54

Any idea what pEC50 came out for O=C(Nc1ccc(CN2CCC3(CC3)C2=O)cc1)OCc1ccc(Cl)cc1 on human NAMPT (Homo sapiens (Human), UniProt P43490)?
5.51

Any idea what pEC50 came out for CN1CC(=O)NC[C@@H]1c1ccc(NC(=O)OCc2ccc(C(F)F)cc2)cc1 on human NAMPT (Homo sapiens (Human), UniProt P43490)?
4.67

Any idea what pEC50 came out for O=C(Nc1ccc(C2CCN(C3COC3)CC2)cc1)OCc1cnco1 on human NAMPT (Homo sapiens (Human), UniProt P43490)?
4.59

Any idea what pEC50 came out for CC(C)C(=O)N1CCC2(CC(c3ccc(NC(=O)OCc4cnco4)cc3F)C2)C1 (single isomer, unassigned) [Compound 361] on human NAMPT (Homo sapiens (Human), UniProt P43490)?
4.96

Any idea what pEC50 came out for Cc1n[nH]c(C)c1C(=O)N(C)Cc1ccc(NC(=O)OCc2ccc(Cl)cc2)cc1 on human NAMPT (Homo sapiens (Human), UniProt P43490)?
4.83

Any idea what pEC50 came out for Cc1coc(C(=O)N[C@@H](C)c2ccc(NC(=O)OCc3ccc(Cl)cc3)cc2)n1 on human NAMPT (Homo sapiens (Human), UniProt P43490)?
4.58
